System: HCT116
Experiment: Reverse Phase Protein Analysis (RPPA)
Type: cell-based, human
Settings: % change from DMSO (matched cell line)
ASSAY ENDPOINT: Avg (Bak) (%)
Give bare numbers, in %.

| MOLECULE | UNITS SYMBOL | Avg (Bak) |
| --- | --- | --- |
| Cn1nccc1Nc1nccc(-c2ccn([C@H](CO)c3ccc(Cl)c(F)c3)c(=O)c2)n1 | % | −1.74 |

Parameter requested: Avg (Bak). Apply to each item below.
1. O=C(Nc1ccc2[nH]nc(-c3ccncc3)c2c1)[C@@H]1CCN(CC(=O)N2CCN(c3ccc(-c4ncccn4)cc3)CC2)C1
2. CC(C)Nc1cc(-c2c[nH]c(C(=O)N[C@H](CO)c3cccc(Cl)c3)c2)c(Cl)cn1
3. Cc1cnc(Nc2ccc(F)cc2Cl)nc1-c1c[nH]c(C(=O)N[C@H](CO)c2cccc(Cl)c2)c1 [Vx-11e]

output:
−4.66
−13.16
−3.07
